- target-system: T1, StrepII-tagged ROR1-extracellular domain (human) (human, UniProt Q01973 30-406)
- T1 construct: extracellular domain; also called ROR1-strep; soluble ROR1-strep
- T1 sequence (Q01973 other isoform, or with tags, fused parts or gaps): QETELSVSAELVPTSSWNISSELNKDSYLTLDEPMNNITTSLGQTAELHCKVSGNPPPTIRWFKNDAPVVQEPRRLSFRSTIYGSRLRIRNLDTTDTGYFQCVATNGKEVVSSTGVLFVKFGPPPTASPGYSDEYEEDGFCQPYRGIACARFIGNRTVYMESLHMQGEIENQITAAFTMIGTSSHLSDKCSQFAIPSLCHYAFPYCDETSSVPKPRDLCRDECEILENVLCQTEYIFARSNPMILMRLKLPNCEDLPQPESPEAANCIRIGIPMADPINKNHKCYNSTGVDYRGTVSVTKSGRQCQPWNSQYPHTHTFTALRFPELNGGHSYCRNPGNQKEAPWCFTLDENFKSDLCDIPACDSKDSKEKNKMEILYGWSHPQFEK
- experiment: SPR (Biacore T200), purified mAb captured by anti-human Fc, ROR1-strep 2.5-20 nM as analyte, 1:1 model, 25 C
The reader will find reported kon values listed item by item below.

binder	kon, M⁻¹ s⁻¹
chimeric mAb 2A2 (mouse variable regions, human IgG1/kappa constant regions) (antibody, V domains shown, also called chim 2A2; parental mAb 2A2) VH: QVQLQQSGAELVRPGASVTLSCKASGYTFSDYEMHWVIQTPVHGLEWIGAIDPETGGTAYNQKFKGKAILTADKSSSTAYMELRSLTSEDSAVYYCTGYYDYDSFTYWGQGTLVTVSA VL: DIVMTQSQKIMSTTVGDRVSITCKASQNVDAAVAWYQQKPGQSPKLLIYSASNRYTGVPDRFTGSGSGTDFTLTISNMQSEDLADYFCQQYDIYPYTFGGGTKLEIK	1.69e+06
hu2A2-D16, humanized from 2A2 (antibody, human IgG1, V domains shown, Human IgG1/kappa, expressed in 293T cells and purified; also called msD16-7) VH: EVQLVESGAEVKKPGASVKVSCKASGYTFSDYEMHWVRQAPGQGLEWVGAIDPETGGTAYNQKFKGRVTMTRDTSTSTVYMELSSLRSEDTAVYYCTGYYDYDSFTYWGQGTLVTVSS VL: DIQMTQSPSSLSASVGDRVTITCKASQNVDAAVAWYQQKPGKAPKLLIYSASNRYTGIPTRFSGSGSGTDFTLTISSLQSEDLADYFCQQYDIYPYTFGQGTKVEIK	1.73e+06
rbQ11, humanized from R11 (antibody, human IgG1, V domains shown, Human IgG1/kappa, expressed in 293T cells and purified; also called huR11-Q11; rbQ11-32) VH: EVQLVQSGGGLVQPGGSLRLSCAASGSDINDYPISWVRQAPGKGLEWVSFINSGGSTWYASWVKGRFTISRDNAKNSLYLQMNSLRDDDTATYFCARGYSTYYGDFNIWGQGTLVTVSS VL: DIVMTQSPSSLSASVGDRVTITCQASQSIDSNLAWFQQKPGKAPKSLIYRASNLASGVPSKFSGSGSGTDFTLTISSLQREDAATYYCLGGVGNVSYRTSFGGGTKVEIK	821000
rbD4, humanized from R11 (antibody, human IgG1, V domains shown, Human IgG1/kappa, expressed in 293T cells and purified; also called huR11-D4; rbD4-32) VH: EVQLVESGGGLVQPGRSLRLSCTASGSDINDYPISWFRQAPGKGLEWVGFINSGGSTWYASWVKGRFTISRDDSKSIAYLQMNSLKTDDTATYFCARGYSTYYGDFNIWGQGTTVTVSS VL: DVVMTQSPSSLSASVGDRVTITCQASQSIDSNLAWFQQKPGKAPNLLIYRASNLASGVPSRFSGSGSGTEFTLTISSLQREDAATYYCLGGVGNVSYRTSFGQGTKVEIK	785000
hu2A2b-Q11, humanized from 2A2 (antibody, human IgG1, V domains shown, also called hu2A2-Q11; msQ11-3) VH: EVQLVQSGAEVKKPGASVKVSCKASGYTFSDYEMHWVRQAPGQGLEWLGAIDPETGGTAYNQKFKGRVTMTGDTSISTAYMELSRLTSDDTAVYYCTGYYDYDSFTYWGQGTLVSVSS VL: DIQMTQSPSSLSTSVGDRVTITCKASQNVDAAVAWYQQKPGKAPKLLIYSASNRYTGVASRFSGSGSGTDFTFTISSLQSEDLADYFCQQYDIYPYTFGQGTKLEIK	1.75e+06
rbQ12, humanized from R11 (antibody, human IgG1, V domains shown, Human IgG1/kappa, expressed in 293T cells and purified; also called huR11-Q12; rbQ12-40) VH: EVQLVESGGGLVQPGGSLRLSCAASGSDINDYPISWVRQAPGKGLEWVSFINSGGSTWYASWVKGRFTISRDNAKNSLYLQMNSLRADDTATYFCARGYSTYYGDFNIWGQGTMVTVSS VL: EIVMTQSPSSLSASVGDRVTITCQASQSIDSNLAWFQQKPGKAPNLLIYRASNLASGVPSRFSGSGSGTEFTLTISSLQREDAATYYCLGGVGNVSYRTSFGQGTKVEIK	733000
hu2A2-D23, humanized from 2A2 (antibody, human IgG1, V domains shown, Human IgG1/kappa, expressed in 293T cells and purified; also called msD23-19) VH: QVQLVESGAEVKKPGASVKLSCKASGYTFSDYEMHWVRQAPGQRLEWMGAIDPETGGTAYNQKFKGRVTITVDKSASTAYMELSSLRSEDTAVYYCTGYYDYDSFTYWGPGTTVTVSS VL: DIVMTQSPSTLSASVGDRVTITCKASQNVDAAVAWYQQKPGTAPKLLIYSASNRYTGVPSRFSGSGSGTEFTLTISSLQSEDLADYFCQQYDIYPYTFGQGTKLEIK	1.72e+06
